Recorded values, source paper PMC11672854.

# Target under test: T1, Anterior Gradient-2 (AGR2/PDIA17), AGR2 (21-175), 6x-His tag removed (human, UniProt O95994)
# T1 construct: Anterior Gradient-2 (AGR2/PDIA17), human, residues 21-175; tag removed with 8x-His-TEV; also called rAGR2; recombinant AGR2; source: E. coli BL21(DE3), purified (HisTrap, TEV cleavage, second HisTrap flow-through); not shown: His6, N-terminal, cleaved
# T1 sequence (O95994 21-175): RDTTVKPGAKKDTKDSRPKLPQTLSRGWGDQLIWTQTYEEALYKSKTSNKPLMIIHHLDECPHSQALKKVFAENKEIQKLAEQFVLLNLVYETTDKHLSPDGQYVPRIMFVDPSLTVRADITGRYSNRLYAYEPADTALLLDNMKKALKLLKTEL
# Assay protocol: ELISA; MaxiSorp plates coated with 1 µg AGR2 (wild type or mutant), PDI, TXN or BSA; varying MAb in 50 mM Tris, 140 mM NaCl, 1% BSA, 0.05% Tween 20, pH 8.0, 1 h at 37 °C; detection with Protein L-peroxidase
# Condition info: both partners purified
Each entry below carries its recorded EC50.
Readout: EC50 (nM)

Binder: anti-AGR2 monoclonal antibody MAb-15 (VH-VL of scFv-15 in a full human IgG1 backbone) (antibody, V domains shown, VH of scFv-15 (as the VH of m3); human IgG1 heavy chain constant region (full human IgG1 backbone); VL of scFv-15 (as the VL of m3); light chain constant region; IgG1; also called original anti-AGR2 antibody; parent MAb-15; source: expi293F, transfected, purified from media (rProteinA)) VH: EVQLLESGGGLVQPGGSLRLSCAASGFTFSSYAMSWVRQAPGKGLEWVSGISAQGAHTTYADSVKGRFTISRDNSKNTLYLQMNSLRAEDTAVYYCAKTYKGFDYWGQGTLVTVSS VL: DIQMTQSPSSLSASVGDRVTITCRASQSISSYLNWYQQKPGKAPKLLIYSASRLQSGVPSRFSGSGSGTDFTLTISSLQPEDFATYYCQQGRRMPPTFGQGTKVEIK
Readout: EC50
Readout units: nM
Assay value: 2.03

Binder: affinity-matured anti-AGR2 MAb S31R/A53F (VH mutant of MAb-15, human IgG1) (antibody, V domains shown, as the VH of m4 (scFv-15) with the stated changes; human IgG1 heavy chain constant region; IgG1; source: expi293F, transfected, purified from media (rProteinA)) VH: EVQLLESGGGLVQPGGSLRLSCAASGFTFSRYAMSWVRQAPGKGLEWVSGISFQGAHTTYADSVKGRFTISRDNSKNTLYLQMNSLRAEDTAVYYCAKTYKGFDYWGQGTLVTVSS VL: DIQMTQSPSSLSASVGDRVTITCRASQSISSYLNWYQQKPGKAPKLLIYSASRLQSGVPSRFSGSGSGTDFTLTISSLQPEDFATYYCQQGRRMPPTFGQGTKVEIK
Readout: EC50
Readout units: nM
Assay value: 0.0385

Binder: affinity-matured anti-AGR2 MAb S31R/A53Y (VH mutant of MAb-15, human IgG1) (antibody, V domains shown, as the VH of m4 (scFv-15) with the stated changes; human IgG1 heavy chain constant region; IgG1; also called anti-AGR2 MAb clone S31R/A53Y; source: expi293F, transfected, purified from media (rProteinA)) VH: EVQLLESGGGLVQPGGSLRLSCAASGFTFSRYAMSWVRQAPGKGLEWVSGISYQGAHTTYADSVKGRFTISRDNSKNTLYLQMNSLRAEDTAVYYCAKTYKGFDYWGQGTLVTVSS VL: DIQMTQSPSSLSASVGDRVTITCRASQSISSYLNWYQQKPGKAPKLLIYSASRLQSGVPSRFSGSGSGTDFTLTISSLQPEDFATYYCQQGRRMPPTFGQGTKVEIK
Readout: EC50
Readout units: nM
Assay value: 0.0404

Binder: affinity-matured anti-AGR2 MAb S31R (VH mutant of MAb-15, human IgG1) (antibody, V domains shown, as the VH of m4 (scFv-15) with the stated change; human IgG1 heavy chain constant region; IgG1; source: expi293F, transfected, purified from media (rProteinA)) VH: EVQLLESGGGLVQPGGSLRLSCAASGFTFSRYAMSWVRQAPGKGLEWVSGISAQGAHTTYADSVKGRFTISRDNSKNTLYLQMNSLRAEDTAVYYCAKTYKGFDYWGQGTLVTVSS VL: DIQMTQSPSSLSASVGDRVTITCRASQSISSYLNWYQQKPGKAPKLLIYSASRLQSGVPSRFSGSGSGTDFTLTISSLQPEDFATYYCQQGRRMPPTFGQGTKVEIK
Readout: EC50
Readout units: nM
Assay value: 0.156
